- assay_notes: NCI Yeast Anticancer Drug Screen. Data for the rad50 strain (AID 155);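 note: 0% = growth of vehicle-only cultures of the same strain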
- experimental_parameters: S. cerevisiae rad50 strain growth inhibition; at 50.0 µM; hits give high values
The panel holds about 79,000 compounds, 15% with a hit somewhere; the sample as a whole holds those more often.
growth inhibition values for the molecules below.
recorded_metric: growth inhibition (%)

INSERT INTO measurements (molecule, quantity_unit, test_value) VALUES
  ('CCOC(=O)NNC(=O)NC12CC3CC(CC(C3)C1)C2', '%', -16.7),
  ('O=Cc1cc(O)ccc1[N+](=O)[O-]', '%', 11.4),
  ('CNc1nc(SCc2ccccc2)c2ncn(C3OC(CO)C(O)C3O)c2n1 (stereo unspecified)', '%', 11.3),
  ('O=C1C(=O)C([n+]2cccc3ccccc32)=C([O-])C2=C1C1c3ccccc3C2c2ccccc21', '%', 98.8),
  ('C/C(CC(=O)Nc1cccc(Cl)c1C)=N\N=C(N)N', '%', -10.2),
  ('c1ccc(-c2cc3cc4c(cc3[nH]2)Oc2ccccc2O4)cc1', '%', 5.45);

Reference for the values: PubChem BioAssay (NCI)
